Source listed as ChEMBL document CHEMBL1201862.

Recorded GI50, one value per entry.
# System: OVCAR-8
# assay-protocol: NCI tumour cell line growth inhibition, 48 h
Activity calls are given as the source filed them. Cut-off read from the data, not from the text of the source: active = GI50 up to about 1.1 µM and inactive = higher.

Below, 4 molecules whose answers are already recorded.
- molecule: "CC(C)=CCC[C@@H](C)C1=C(O)C(=O)C(C)=C(Nc2ccccc2F)C1=O"
  observed: "7.19 µM (inactive)"
- molecule: "COC(=O)c1ccccc1NCc1cc(O)ccc1O"
  observed: "18.1 µM (inactive)"
- molecule: "Cc1ccc([N+](=O)[O-])cc1S(=O)(=O)Nc1ccc(C2=NOC(c3ccco3)C2)cc1 (stereo not given)"
  observed: "39.2 µM (inactive)"
- molecule: "CN(C)CCNC(=O)c1cc([N+](=O)[O-])cc2c1Oc1ccccc1O2"
  observed: "14.4 µM (inactive)"

So what does the record say about GI50 for CCOC(=O)C12CC1(C(=O)OCC)C1CCC2C1 (stereo not given) ?
> 100 µM (inactive)

So what does the record say about GI50 for Nc1cc2c(cc1[N+](=O)[O-])[nH]c1c(-c3ccccc3)nccc12 ?
30.8 µM (inactive)

====

# System: Malme-3M
# assay-protocol: NCI tumour cell line growth inhibition, 48 h
Calls of active or inactive are those of the source. Cut-off read from the data, not from the text of the source: active = GI50 up to about 1.1 µM and inactive = higher.
result-type: GI50

Below, 3 compounds whose answers are already recorded.
- compound: "COc1cc(O)c(C(=O)C2Cc3ccccc32)c(OC)c1 (configuration not stated)"
  result-type: "GI50"
  observed: "35.8 µM (inactive)"
- compound: "CCN(CC)C(=O)C/C(C)=N/NC(=O)c1ccncc1"
  result-type: "GI50"
  observed: "> 100 µM (inactive)"
- compound: "Cc1ccc(S(=O)(=O)O)cc1.c1cc2c(c(NC3=NCCN3)c1)CCCC2"
  result-type: "GI50"
  observed: "> 100 µM (inactive)"

So what does the record say about GI50 for COc1cccc2c1C(=O)c1c(O)c3c(c(O)c1C2=O)C[C@@](O)(C(=O)CO)CC3OC1CC(NCCCCC(OC(C)=O)OC(C)=O)C(O)C(C)O1 (some centres not stated) ?
0.0048 µM (active)

So what does the record say about GI50 for O=C1CSSCC(=O)Nc2ccccc2N1 ?
> 100 µM (inactive)

So what does the record say about GI50 for O=C1/C(=C\c2cccc(Oc3ccccc3)c2)S(=O)(=O)C(c2ccccc2)N1c1ccc(Cl)cc1 (configuration not stated) ?
18.2 µM (inactive)

So what does the record say about GI50 for Nc1cc2c(cc1[N+](=O)[O-])[nH]c1c(-c3ccccc3)nccc12 ?
17.4 µM (inactive)

====

# Tested on: IGROV-1
# assay-protocol: NCI tumour cell line growth inhibition, 48 h
Calls of active or inactive are those of the source. No stated cut-off is given here; in the data, active = GI50 up to about 1.1 µM and inactive = higher.
result-type: GI50

Return GI50 measured with IGROV-1 given this molecule: COC(=O)C1=C(C)N(NC(=O)c2ccccc2)C2(O)CCCC(=O)C12C (stereo unspecified)
> 100 µM (inactive)

====

# Test system: HOP-18
# assay-protocol: NCI tumour cell line growth inhibition, 48 h
Active and inactive are the calls of the source. Rule as the data show it: active = GI50 up to about 1.1 µM and inactive = higher.
Recorded GI50, one value per entry.

Below, 2 compounds whose answers are already recorded.
- compound: "Cc1ccc(NC(=O)C2C(=O)N(c3ccc(C)c(C)c3)C(=O)C2N=N)cc1C (configuration not stated)"
  GI50: "> 100 µM (inactive)"
- compound: "O=P1(Oc2ccc(Cl)cc2Cl)Oc2ccc3ccccc3c2-c2c(ccc3ccccc23)O1"
  GI50: "61.5 µM (inactive)"

So what does the record say about GI50 for C/C(=C1/N=C(c2cc([N+](=O)[O-])ccc2Cl)N(C2=CC=C(Cl)CC2)C1=O)c1cc2ccccc2oc1=O ?
21.2 µM (inactive)

So what does the record say about GI50 for CC1=C(c2cc(C(=O)Nc3ccc(Cl)c(Cl)c3)nc(N)n2)Sc2ccccc2N1 ?
> 100 µM (inactive)

====

Recorded GI50, one value per entry.
# Test system: HOP-92
# assay-protocol: NCI tumour cell line growth inhibition, 48 h
The source made the active and inactive calls. Cut-off read from the data, not from the text of the source: active = GI50 up to about 1.1 µM and inactive = higher.

- compound: "CCCCCCCCCc1cccc(N2C(N)=NC(N)=NC2(C)C)c1"
  result-type: "GI50"
  observed: "1.58 µM (inactive)"
- compound: "CCC(/C=C/c1ccccc1)=N\\NC(=S)N/N=C(/C=C/c1ccccc1)CC"
  result-type: "GI50"
  observed: "83.9 µM (inactive)"
- compound: "CCOC(OCC)(OCC)C(Br)CC (stereo unspecified)"
  result-type: "GI50"
  observed: "> 100 µM (inactive)"
- compound: "O=C1CSC(c2cccc(Oc3ccccc3)c2)N1c1ccc(Cl)cc1 (stereo unspecified)"
  result-type: "GI50"
  observed: "13.4 µM (inactive)"
- compound: "COC(=O)c1ccccc1NCc1cc(O)ccc1O"
  result-type: "GI50"
  observed: "17.7 µM (inactive)"

So what does the record say about GI50 for c1ccc2c(c1)OCCOCCOc1ccccc1OCCO2 ?
51.5 µM (inactive)

So what does the record say about GI50 for CCC1C2Cc3ccc(O)cc3C1(CC)CCN2C (stereo unspecified) ?
> 100 µM (inactive)

So what does the record say about GI50 for COc1c(O)c2c3c(cc(C)cc3c1C(C)C)OC2 ?
> 100 µM (inactive)

So what does the record say about GI50 for Cc1cc(=O)oc2c(C3=NN(C=O)C(c4ccccc4)C3)c(O)ccc12 (stereo unspecified) ?
23 µM (inactive)

So what does the record say about GI50 for CC(=O)NC1COC(COC(=O)CCCCCCCCCCNC(=O)c2ccc([N+](=O)[O-])c3c(=O)c4ccccc4[nH]c23)C(O)C1OC(C)C(=O)NC(C(=O)NC(CCC(N)=O)C(=O)OCc1ccccc1)C(C)C (stereo unspecified) ?
8.05 µM (inactive)

So what does the record say about GI50 for c1cc(C[S+]2CCCC2)ccc1C[S+]1CCCC1 ?
> 100 µM (inactive)

====

# System: DLD-1
# assay-protocol: NCI tumour cell line growth inhibition, 48 h
Active and inactive are the calls of the source. Rule as the data show it: active = GI50 up to about 1.1 µM and inactive = higher.
Give your call using only these classes: active, inactive

- compound: "O=C1[C@H](Cl)[C@H]2c3cc4ccccc4nc3Oc3ccccc3N12"
  assay-system: "DLD-1"
  label-class: "inactive"
- compound: "Cc1cccc(C)c1NC(=O)CCCC(=O)C(C#N)c1ccccc1 (centres undefined)"
  assay-system: "DLD-1"
  label-class: "inactive"
- compound: "CC(=O)OCc1cc2c(s1)C(=O)c1sccc1C2=O"
  assay-system: "DLD-1"
  label-class: "active"
- compound: "COc1cc2c(cc1OC)[Se]c1cc(OC)c(OC)cc1[Se]2"
  assay-system: "DLD-1"
  label-class: "inactive"
- compound: "COc1ccc2[nH]c3c(C)c4cc[n+](C)cc4c(C)c3c2c1"
  assay-system: "DLD-1"
  label-class: "inactive"

# input for lookup
Would you mind telling me which call this test gave CCOC(=O)C12CC1(C(=O)OCC)C1CCC2C1 (centres undefined) ?
inactive

====

# System: T47D
# assay-protocol: NCI tumour cell line growth inhibition, 48 h
Activity calls are given as the source filed them. Rule as the data show it: active = GI50 up to about 1.1 µM and inactive = higher.
Give your call using only these classes: active, inactive

Reference set (4 entries):
- molecule: "CC(=O)OC1O[C@@H](C(C)(C)O)CC[C@@H]1[C@H]1CC[C@@]2(C)C3=C(CC[C@]12C)[C@@]1(C)C[C@@H](OC(=O)CC(C)(O)CC(=O)O)[C@H](OC(C)=O)C(C)(C)C1CC3 (some centres undefined)"
  label-class: "inactive"
- molecule: "Cc1ccc([N+](=O)[O-])cc1S(=O)(=O)Nc1ccc(C2=NN(C(=O)c3ccccc3)C(c3cccs3)C2)cc1 (centres undefined)"
  label-class: "inactive"
- molecule: "C/C(=N\\Nc1ncnc2ccccc12)c1ccccn1"
  label-class: "active"
- molecule: "Cc1ccc(C)c(C(=N)c2ccccc2Cc2ccccc2)c1"
  label-class: "inactive"

Would you mind telling me which call this test gave O=C1/C(=C\c2cccc(Oc3ccccc3)c2)S(=O)(=O)C(c2ccccc2)N1c1ccc(Cl)cc1 (centres undefined) ?
inactive

Would you mind telling me which call this test gave O=C1CC(c2cccc(Br)c2)n2cccc21 (centres undefined) ?
inactive

Would you mind telling me which call this test gave O=S1(=O)N=C(SCc2ccccc2)N(c2ccccc2)c2ccncc21 ?
inactive

Would you mind telling me which call this test gave CNC(=O)Nn1c(SC)nc2ccccc21 ?
inactive

Would you mind telling me which call this test gave C=CCN1C[C@H](C)N([C@H](c2ccc(C(=O)NC(CC)CC)cc2)c2cccc(OC)c2)C[C@H]1C ?
inactive

====

# Test system: CAKI-1
# assay-protocol: NCI tumour cell line growth inhibition, 48 h
Calls of active or inactive are those of the source. Rule as the data show it: active = GI50 up to about 1.1 µM and inactive = higher.
result-type: GI50

- molecule: "O=C(N/C=C1\\C(=O)Oc2ccccc2C1=O)Oc1ccccc1"
  GI50: "21.6 µM (inactive)"

So what does the record say about GI50 for COCC1OC(S(=O)(=O)c2ccccc2)C(O)C(OC)C1OC (stereo unspecified) ?
> 100 µM (inactive)

So what does the record say about GI50 for Cc1n[nH]c(=S)n1/N=C/c1ccc(-c2ccc(Cl)cc2)o1 ?
> 100 µM (inactive)

So what does the record say about GI50 for C[N+](C)(C)CC(=O)N/N=C(/CC1OC(=O)c2ccccc21)c1ccccc1O (stereo unspecified) ?
34.1 µM (inactive)

So what does the record say about GI50 for O=C(O)CCSC1=NCCN1 ?
> 100 µM (inactive)

So what does the record say about GI50 for O=C1CSC(c2cccc(Oc3ccccc3)c2)N1c1ccc(Cl)cc1 (stereo unspecified) ?
17.9 µM (inactive)
